These data points were gathered from patent US11655247B2.

test-target: NanoLuc (Oplophorus gracilirostris, UniProt Q9GV45, A31E/A60N/A81I/F95D/I117V/K70R/L54V/L99Q/M102K/N193R/P142E/Q151K/Q38R/Q45L/V71I/Y165I)
Sequence (Q9GV45 28-196 with tags or gaps with the stated changes limits assumed): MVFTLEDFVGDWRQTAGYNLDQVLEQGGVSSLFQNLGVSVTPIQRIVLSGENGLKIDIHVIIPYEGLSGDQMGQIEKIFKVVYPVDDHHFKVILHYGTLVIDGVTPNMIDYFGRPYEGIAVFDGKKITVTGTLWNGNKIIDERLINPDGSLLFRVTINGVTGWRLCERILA
experimental-protocol: Inhibition of NanoLuc luciferase: blocking of furimazine luminescence after pre-incubation
Assay type: biochemical
assay-context: compound incubated with NanoLuc first, then furimazine (10 μM) added
measured-quantity: Inhibition of NanoLuc (bioluminescence upon later furimazine addition)

>  <structure-notation>
O=C(CCc1ccc2n1[B-](F)(F)[N+]1=C(c3ccc[nH]3)C=CC1=C2)NCCCCCCOc1ccc(Cc2nc3c(Cc4ccccc4)[nH]c(-c4ccc(O)cc4)cn-3c2=O)cc1F

>  <assay-value>
did not inhibit NanoLuc

$$$$
>  <structure-notation>
CN(C)c1ccc2c(-c3cc(C(=O)NCCOCCOCCC(=O)NCCCCCCCCOc4ccc(Cc5cc6c(Cc7ccccc7)[nH]c(-c7ccc(O)cc7)cn-6c5=O)cc4F)ccc3C(=O)[O-])c3ccc(N(C)C)cc3[o+]c2c1

>  <assay-value>
did not inhibit NanoLuc

$$$$
>  <structure-notation>
CC(=O)Oc1ccc2c(c1)Oc1cc(OC(C)=O)ccc1C21OC(=O)c2ccc(C(=O)NCCCCCCCCOc3ccc(Cc4nc5c(Cc6ccccc6)[nH]c(-c6ccc(O)cc6)cn-5c4=O)cc3F)cc21

>  <assay-value>
did not inhibit NanoLuc

$$$$
>  <structure-notation>
O=C(NCCCCCCCCOc1ccc(Cc2nc3c(Cc4ccccc4)[nH]c(-c4ccc(O)cc4)cn-3c2=O)cc1F)c1cc2cc3c4c(c2oc1=O)CCCN4CCC3

>  <assay-value>
did not inhibit NanoLuc

$$$$
>  <structure-notation>
[N-]=[N+]=NCCCCCCCCOc1ccc(Cc2nc3c(Cc4ccccc4)[nH]c(-c4ccc(O)cc4)cn-3c2=O)cc1F

>  <assay-value>
partial Nluc inhibitors

$$$$
>  <structure-notation>
NCCCCCCOc1ccc(Cc2nc3c(Cc4ccccc4)[nH]c(-c4ccc(O)cc4)cn-3c2=O)cc1F

>  <assay-value>
only partially inhibited

$$$$
>  <structure-notation>
CN(C)c1ccc2c(-c3cc(C(=O)NCCCCCCOc4ccc(Cc5nc6c(Cc7ccccc7)[nH]c(-c7ccc(O)cc7)cn-6c5=O)cc4F)ccc3C(=O)[O-])c3ccc(N(C)C)cc3[o+]c2c1

>  <assay-value>
did not inhibit NanoLuc

$$$$
>  <structure-notation>
NCCOCCOCCC(=O)NCCCCCCCCOc1ccc(Cc2cc3c(Cc4ccccc4)[nH]c(-c4ccc(O)cc4)cn-3c2=O)cc1F

>  <assay-value>
partial Nluc inhibitors

$$$$
>  <structure-notation>
O=C(NCCCCCCCCOc1ccc(Cc2nc3c(Cc4ccccc4)[nH]c(-c4ccc(O)cc4)cn-3c2=O)cc1F)c1cc2ccc(O)cc2oc1=O

>  <assay-value>
partial Nluc inhibitors

$$$$
>  <structure-notation>
O=c1ccc2cc(Cc3nc4c(Cc5ccccc5)[nH]c(-c5ccc(O)cc5)cn-4c3=O)ccc2o1

>  <assay-value>
partial Nluc inhibitors

$$$$
>  <structure-notation>
Cc1cc(C)n2c1C(CCNC(=O)CCC(=O)NCCCCCCCCOc1ccc(Cc3nc4c(Cc5ccccc5)[nH]c(-c5ccc(O)cc5)cn-4c3=O)cc1F)=C1C=CC=[N+]1[B-]2(F)F

>  <assay-value>
only partially inhibited

$$$$
>  <structure-notation>
COc1cc2c(c(Cl)c1OC(C)=O)Oc1c(cc(OC)c(OC(C)=O)c1Cl)C21OC(=O)c2ccc(C(=O)NCCCCCCCCOc3ccc(Cc4nc5c(Cc6ccccc6)[nH]c(-c6ccc(O)cc6)cn-5c4=O)cc3F)cc21

>  <assay-value>
did not inhibit NanoLuc

$$$$
>  <structure-notation>
CN(C)c1ccc2c(-c3cc(C(=O)NCCCCCCCCOc4ccc(Cc5nc6c(Cc7ccccc7)[nH]c(-c7ccc(O)cc7)cn-6c5=O)cc4F)ccc3C(=O)[O-])c3ccc(N(C)C)cc3[o+]c2c1

>  <assay-value>
did not inhibit NanoLuc

$$$$
>  <structure-notation>
NCCCCCCCCOc1ccc(Cc2nc3c(Cc4ccccc4)[nH]c(-c4ccc(O)cc4)cn-3c2=O)cc1F

>  <assay-value>
partial Nluc inhibitors

$$$$
